# targetOrTestSystem: T1, human PD-1 extracellular domain (human, UniProt Q15116 25-170)
# T1 construct: extracellular domain; Soluble analyte in the bio-layer interferometry assay; also called recombinant human PD-1 extracellular domain protein
# T1 sequence (Q15116 25-170): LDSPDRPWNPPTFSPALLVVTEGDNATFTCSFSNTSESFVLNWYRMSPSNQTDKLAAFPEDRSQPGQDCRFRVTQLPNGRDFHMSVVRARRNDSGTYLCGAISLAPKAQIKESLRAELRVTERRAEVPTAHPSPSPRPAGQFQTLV
# testDescription: bio-layer interferometry (Octet Red 96), antibody on anti-human Fc biosensor, PD-1 ECD in solution, 1:1 global fit, 30 C
observable: Kd (nM)

# binder, recordedValue
records = [
    ("AB1 (antibody, human IgG1, kappa, V domains shown, Rabbit variable domains on human IgG1 / human kappa constant domains; purified by protein A from HEK-293 supernatant; also called AB1 chimeric; rabbit/human chimeric anti-PD-1 antibody AB1) VH: QSLEESGGDLVKPEGSLTLTCKASGFDFSSGYWICWVRQAPGKGLELIACIYAGTSGSTSYASWARGRFTISETSSTTVTLQMTSLTAADSATYFCARNLYTYNSLWGQGTLVTVSS VL: QVLTQTASSVSAAVGGTVTISCQSSQSVYDNNWLAWYQQKPGQPPMLLIYTVSTLASGVSSRFKGSGSGTQFTLTISGVQCDDAATYYCQGTYYSSGWNFAFGGGTEVVVKR", 4.8),
    ("AB5HU (antibody, human IgG1, kappa, V domains shown, Humanized, human gamma-1 / kappa constant domains as in the full-length entries; also called humanized form of antibody AB5; ABSHU [sic]) VH: EVQLLESGGGLVQPGGSLRLSCAASGFTFSSSHWICWVRQAPGKGLEWIACIYTGSIDVFYYASWAKGRFTISRDNSKNTLYLQMNSLRAEDTAVYYCARAANTDTTYFNLWGQGTLVTVSS VL: AYDMTQSPSSLSASVGDRVTINCQASQSINNQLSWYQQKPGKVPKLLIYGASTLASGVPSRFTGSGSGTDFTLTISSLQPEDVATYYCHVHYCSGGSCFWAFGGGTKVEIKR", 6.6),
]
